SUBJECT OF TEST: SAP (Homo sapiens, UniProt P02743)
Sequence (P02743 20-223): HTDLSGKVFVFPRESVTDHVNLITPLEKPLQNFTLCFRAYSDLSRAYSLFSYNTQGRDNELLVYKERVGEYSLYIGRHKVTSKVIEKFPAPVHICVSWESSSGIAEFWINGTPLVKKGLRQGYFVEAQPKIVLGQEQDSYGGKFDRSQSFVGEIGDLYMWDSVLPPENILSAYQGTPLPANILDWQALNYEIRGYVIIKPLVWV
METHOD: Inhibition of binding of 125I radiolabelled SAP to influenza virus immobilized in microtitre plates
Parameters: 5 μl of radiolabelled SAP in TN; from tissue
EXPERIMENTAL CONTEXT: compound 200 nM; read-out: Percent inhibition of binding of radiolabelled SAP to immobilized influenza virus
VALUE KIND: inhibition at 0.2 µM (%)
Note: unit % is implicit; provide only the numeric part.

Before answering, review these 7 worked examples.
>  <MOL>
O=C(O)[C@H]1CCCN1C(=O)Cc1cc(O)c(CC(=O)N2CCC[C@@H]2C(=O)O)cc1O

>  <inhibition at 0.2 µM [%]>
24

$$$$
>  <MOL>
COc1cccc(OCC(=O)N2CCC[C@@H]2C(=O)O)c1OCC(=O)N1CCC[C@@H]1C(=O)O

>  <inhibition at 0.2 µM [%]>
16

$$$$
>  <MOL>
O=C(O)[C@H]1CCCN1C(=O)COc1cccc2c(OCC(=O)N3CCC[C@@H]3C(=O)O)cccc12

>  <inhibition at 0.2 µM [%]>
23

$$$$
>  <MOL>
O=C(O)[C@H]1CCCN1C(=O)COc1ccc(OCC(=O)N2CCC[C@@H]2C(=O)O)cc1

>  <inhibition at 0.2 µM [%]>
3

$$$$
>  <MOL>
O=C(O)[C@H]1CCCN1C(=O)CCCCC(=O)N1CCC[C@@H]1C(=O)O

>  <inhibition at 0.2 µM [%]>
36

$$$$
>  <MOL>
O=C(O)[C@H]1CCCN1C(=O)[C@H]1CC[C@@H](C(=O)N2CCC[C@@H]2C(=O)O)CC1

>  <inhibition at 0.2 µM [%]>
0

$$$$
>  <MOL>
C[C@H](CS)C(=O)N1CCC[C@@H]1C(=O)O

>  <inhibition at 0.2 µM [%]>
12

$$$$

Proceeding to the next molecule to report its inhibition at 0.2 µM.
Lookup: inhibition at 0.2 µM / SAP (Homo sapiens, UniProt P02743) / O=C(O)[C@H]1CCCN1C(=O)Cc1ccc(CC(=O)N2CCC[C@@H]2C(=O)O)cc1
37

* * *

SUBJECT OF TEST: SAP (Homo sapiens)
METHOD: Inhibition of binding of 125I radiolabelled SAP to Neisseria meningitidis immobilized in microtitre plates
Parameters: 5 μl of radiolabelled SAP in TN; from tissue
EXPERIMENTAL CONTEXT: compound 200 μM; read-out: Percent inhibition of binding of radiolabelled SAP to immobilized Neisseria meningitidis
Listing: inhibition at 200 µM of selected compounds
Give the value in % but do not write % after it.

Some solved entries appear below for comparison.
>  <COMPOUND>
O=C(O)[C@H]1CCCN1C(=O)Cc1cc(O)c(CC(=O)N2CCC[C@@H]2C(=O)O)cc1O

>  <SUBJECT OF TEST>
SAP (Homo sapiens)

>  <RESULT UNIT>
%

>  <inhibition at 200 µM>
100

$$$$
>  <COMPOUND>
C[C@H](CS)C(=O)N1CCC[C@@H]1C(=O)O

>  <SUBJECT OF TEST>
SAP (Homo sapiens)

>  <RESULT UNIT>
%

>  <inhibition at 200 µM>
54

$$$$
>  <COMPOUND>
NCCOP(=O)(O)O [Phosphoethanolamine, reference compound]

>  <SUBJECT OF TEST>
SAP (Homo sapiens)

>  <RESULT UNIT>
%

>  <inhibition at 200 µM>
41

$$$$
>  <COMPOUND>
O=C(O)[C@H]1CCCN1C(=O)COc1ccccc1OCC(=O)N1CCC[C@@H]1C(=O)O

>  <SUBJECT OF TEST>
SAP (Homo sapiens)

>  <RESULT UNIT>
%

>  <inhibition at 200 µM>
100

$$$$
>  <COMPOUND>
O=C(O)[C@H]1CCCN1C(=O)CCCCC(=O)N1CCC[C@@H]1C(=O)O

>  <SUBJECT OF TEST>
SAP (Homo sapiens)

>  <RESULT UNIT>
%

>  <inhibition at 200 µM>
79

$$$$
>  <COMPOUND>
O=C(O)[C@H]1CCCN1C(=O)Cc1cccc(CC(=O)N2CCC[C@@H]2C(=O)O)c1

>  <SUBJECT OF TEST>
SAP (Homo sapiens)

>  <RESULT UNIT>
%

>  <inhibition at 200 µM>
100

$$$$
>  <COMPOUND>
O=C(O)[C@H]1CCCN1C(=O)COc1ccc(OCC(=O)N2CCC[C@@H]2C(=O)O)cc1

>  <SUBJECT OF TEST>
SAP (Homo sapiens)

>  <RESULT UNIT>
%

>  <inhibition at 200 µM>
65

$$$$
>  <COMPOUND>
COc1cccc(OCC(=O)N2CCC[C@@H]2C(=O)O)c1OCC(=O)N1CCC[C@@H]1C(=O)O

>  <SUBJECT OF TEST>
SAP (Homo sapiens)

>  <RESULT UNIT>
%

>  <inhibition at 200 µM>
93

$$$$
>  <COMPOUND>
O=C(O)[C@H]1CCCN1C(=O)COc1cccc2c(OCC(=O)N3CCC[C@@H]3C(=O)O)cccc12

>  <SUBJECT OF TEST>
SAP (Homo sapiens)

>  <RESULT UNIT>
%

>  <inhibition at 200 µM>
100

$$$$

I'd like to know its inhibition at 200 µM. The compound in question is O=C(O)[C@H]1CCCN1C(=O)Cc1ccc(CC(=O)N2CCC[C@@H]2C(=O)O)cc1
100

* * *

SUBJECT OF TEST: SAP (Homo sapiens, UniProt P02743)
METHOD: Inhibition of binding of 125I radiolabelled SAP to native long chromatin immobilized in microtitre plates
Parameters: 5 μl of radiolabelled SAP in TN; from tissue
EXPERIMENTAL CONTEXT: compound 200 μM; read-out: Percent inhibition of binding of radiolabelled SAP to immobilized native long chromatin
inhibition at 200 µM vs 80%: at or above is yes (1), below is no (0).

>  <COMPOUND>
C[C@H](CSSC[C@@H](C)C(=O)N1CCC[C@@H]1C(=O)O)C(=O)N1CCC[C@@H]1C(=O)O

>  <LABEL CLASS>
yes (1)

$$$$
>  <COMPOUND>
O=C(O)[C@H]1CCCN1C(=O)Cc1cccc(CC(=O)N2CCC[C@@H]2C(=O)O)c1

>  <LABEL CLASS>
yes (1)

$$$$

Entry O=C(O)[C@H]1CCCN1C(=O)Cc1ccc(CC(=O)N2CCC[C@@H]2C(=O)O)cc1 : is its inhibition at 200 µM no less than 80%?
no (0)

# bool: inhibition at 200 µM of C[N+](C)(C)CCOP(=O)([O-])O [Phosphocholine, reference compound] >= 80%
no (0)

Does the reported inhibition at 200 µM for COc1cccc(OCC(=O)N2CCC[C@@H]2C(=O)O)c1OCC(=O)N1CCC[C@@H]1C(=O)O fall at or above the 80% mark?
yes (1)

Check this compound for inhibition at 200 µM at or above 80%: O=C(O)[C@H]1CCCN1C(=O)[C@H]1CC[C@@H](C(=O)N2CCC[C@@H]2C(=O)O)CC1
yes (1)

* * *

As shown below, each of these molecules has a reported inhibition at 20 µM value.
SUBJECT OF TEST: SAP (Homo sapiens)
METHOD: Inhibition of binding of 125I radiolabelled SAP to native long chromatin immobilized in microtitre plates
Design: 5 μl of radiolabelled SAP in TN; from tissue
EXPERIMENTAL CONTEXT: compound 20 μM; read-out: Percent inhibition of binding of radiolabelled SAP to immobilized native long chromatin
// note: answer is a bare numeric in %

What value of measured inhibition at 20 µM is listed for O=C(O)[C@H]1CCCN1C(=O)COc1cccc2c(OCC(=O)N3CCC[C@@H]3C(=O)O)cccc12 [Ro-64-5445] ?
74

Can you look up the measured inhibition at 20 µM of O=C(O)[C@H]1CCCN1C(=O)Cc1cccc(CC(=O)N2CCC[C@@H]2C(=O)O)c1 [Ro-64-2668] for me?
56

* * *

SUBJECT OF TEST: UniProtKB P02743
METHOD: Inhibition of binding of 125I radiolabelled SAP to influenza virus immobilized in microtitre plates
Parameters: 5 μl of radiolabelled SAP in TN; from tissue
EXPERIMENTAL CONTEXT: compound 2 μM; read-out: Percent inhibition of binding of radiolabelled SAP to immobilized influenza virus
VALUE KIND: inhibition at 2 µM (%)
Numeric only. Scale: %

>  <MOLECULE>
O=C(O)[C@H]1CCCN1C(=O)Cc1ccc(CC(=O)N2CCC[C@@H]2C(=O)O)c2ccccc12 [Ro-64-5607]

>  <inhibition at 2 µM / %>
64

$$$$
>  <MOLECULE>
O=C(O)[C@H]1CCCN1C(=O)Cc1ccc(CC(=O)N2CCC[C@@H]2C(=O)O)cc1 [Ro-63-7777]

>  <inhibition at 2 µM / %>
65

$$$$
>  <MOLECULE>
O=C(O)[C@H]1CCCN1C(=O)Cc1cccc(CC(=O)N2CCC[C@@H]2C(=O)O)c1 [Ro-64-2668]

>  <inhibition at 2 µM / %>
68

$$$$

Proceed to the following item.
Value lookup for inhibition at 2 µM; key = COc1cccc(OCC(=O)N2CCC[C@@H]2C(=O)O)c1OCC(=O)N1CCC[C@@H]1C(=O)O [Ro-64-2845]
52
